B1: HDV Ribozyme (parent)
chain: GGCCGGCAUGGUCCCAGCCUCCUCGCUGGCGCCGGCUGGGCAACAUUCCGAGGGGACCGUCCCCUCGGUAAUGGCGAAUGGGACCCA

variants of: B1; experiment: self-cleavage, relative activity (ratio to wild type); higher = more cleavage; co-transcriptional
Classify by measured self-cleavage: fulfilled if it is equal to or exceeds 0.7, not fulfilled if it is smaller.

As a guide, the following entries are already answered.
>>> group("G17A C26G")
"fulfilled"
>>> group("C63U G68U")
"fulfilled"
>>> group("C58G G68C")
"fulfilled"
>>> group("C30A C44A")
"not fulfilled"
>>> group("C32U C85G")
"fulfilled"
>>> group("G35A G76U")
"fulfilled"

**Q:** Reported self-cleavage reaches at least 0.7 for A42G U72G ?
**A:** not fulfilled

**Q:** Reported self-cleavage reaches at least 0.7 for G28A C85G ?
**A:** not fulfilled
